From: patent US20250368745A1

Entries and their measured pKd follow.
test_system: T1, cynomolgus IL-18BP (cynomolgus monkey)
T1 construct: also called cyno IL-18BP; cyIL-18BP
T1 chain: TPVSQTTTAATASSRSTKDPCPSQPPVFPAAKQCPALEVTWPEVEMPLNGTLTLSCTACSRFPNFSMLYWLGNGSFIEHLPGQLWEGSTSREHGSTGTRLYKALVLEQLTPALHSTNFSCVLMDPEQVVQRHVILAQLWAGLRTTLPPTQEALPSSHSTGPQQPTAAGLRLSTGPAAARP
procedure_text: BLI, apparent KD
pKd: −log10 of the molar value.
measured_parameter: pKd

| binder | measured |
| --- | --- |
| SA301a HC-Y50K (antibody, name in Kabat numbering, V domains shown, IgG1 kappa) VH: QVQLQESGPGLVKPSQTLSLTCTVSGYSITSDYNSHWIRQPPGKGLEWIGKIHYSGSTNYNPSLKSRVTISRDTSKNQFSLKLSSVTAADTAVYYCARNYGSIYVNYFDYWGQGTLVTVSS VL: EIVLTQSPATLSLSPGERATLSCSASSSVSYMYWYQQKPGQAPRPLIYRTSNLASGIPARFSGSGSGTDFTLTISSLEPEDFAVYYCQQYHSYPTFGGGTKVEIK | 8.61 |
| SA301a HC-Y50V (antibody, name in Kabat numbering, V domains shown, IgG1 kappa) VH: QVQLQESGPGLVKPSQTLSLTCTVSGYSITSDYNSHWIRQPPGKGLEWIGVIHYSGSTNYNPSLKSRVTISRDTSKNQFSLKLSSVTAADTAVYYCARNYGSIYVNYFDYWGQGTLVTVSS VL: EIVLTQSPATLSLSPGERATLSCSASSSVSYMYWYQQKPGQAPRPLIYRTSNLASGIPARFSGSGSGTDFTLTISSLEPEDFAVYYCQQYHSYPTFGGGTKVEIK | 7.99 |
